Values compiled from patent EP4567031A1.

# Test system: human Pan T cells
# Protocol details: Human Pan T cell IL-2 ELISA
# Type: cell-based
# Test context: Homo sapiens, T-cell, 48 h, Anti-CD3 and Anti-CD28, supernatant IL-2 ELISA, read-out: IL-2 release, EC50
Could you please report measured pEC50 for the items listed next?
Field pEC50 (float): negative decimal logarithm of the concentration in molar.

Value of pEC50 reported for the compound CC1(C)c2cc(N3CCOC(C(C)(C)O)C3)ccc2Nc2c1cc(-c1cnn3cc(F)ccc13)c1c2C(=O)NC1 (stereo not drawn) is 8.04

Input Cc1ccn2c(-c3cc4c(c5c3CNC5=O)Nc3ccc(N5CCOC(C(C)(C)O)C5)cc3C4(C)C)cnc2c1 (single isomer, unassigned) . Output pEC50: 7.74

The compound `CC1(C)c2cc(N3CCOCC3)ccc2Nc2c1cc(-c1cnn3c1CNCC3)c1c2C(=O)NC1` showed pEC50 equal to 7.63

// sample COCC1CN(c2ccc3c(c2)C(C)(C)c2cc(-c4cnc5c(F)c(C)ccn45)c4c(c2N3)C(=O)NC4)CCO1 (stereo not drawn) , its pEC50 was 8.08

Noted for COC1CCn2c(-c3cc4c(c5c3CNC5=O)Nc3ccc(N5CCOC(C(C)(C)O)C5)cc3C4(C)C)cnc2C1 (single isomer, unassigned) : its pEC50 reads 7.60

Briefly, pEC50 measured for COc1ccnn2c(-c3cc4c(c5c3CNC5=O)Nc3ccc(N5CCOC(C(C)(C)O)C5)cc3C4(C)C)cnc12 (stereo not drawn) : 8.74

----------
# Tested on: human Pan T cells
# Protocol details: Human Pan T cell IL-2 ELISA
# Format: cell-based
# Test context: Homo sapiens, T-cell, 48 h, Anti-CD3 and Anti-CD28, supernatant IL-2 ELISA, read-out: IL-2 release, EC50
# Protocol: A compound was dissolved in DMSO to 10 mM, and then diluted three-fold with DMSO to 9 dosages in a 96-well plate. […] The assay was conducted in a 96-well plate. […] On the second day of the assay, human Pan T cells were recovered, centrifuged and counted. […] The signal value of light absorption was converted into a multiple. […] The average value of control wells refers to the value measured in wells with DMSO added. EC50 values were calculated by XLFit (version 5.3.1.3) in Excel. […]
Give measured pEC50 for each item. Keep answers brief.
On this scale, pEC50 is minus log10 of a concentration expressed in M (mol/L).

Reading of pEC50 for `CN1CCN(c2ccc3c(c2)C(C)(C)c2cc(-c4cnn5cccnc45)c4c(c2N3)C(=O)NC4)CC1` with human Pan T cells: 8.61

Tested system human Pan T cells; pEC50 recorded for Cc1ccn2c(-c3cc4c(c5c(=O)[nH]ccc35)Nc3ccc(N5CCOC(C(C)(C)O)C5)cc3C4(C)C)cnc2c1F (stereo not shown) was 7.89

# `Cn1cnc2c(-c3cc4c(c5c3CNC5=O)Nc3ccc(N5CCOCC5)cc3C4(C)C)cncc21` with human Pan T cells: pEC50 is 8.72

Sample CCC1(C)c2cc(N3CCOCC3)ccc2Nc2c1cc(-c1cnc3n1CCCC3OC)c1c2C(=O)NC1 (single isomer, unassigned) , system: human Pan T cells. Its pEC50 is 7.63

Item `CC1(C)c2cc(N3CCOCC3)ccc2Nc2c1cc(-c1cnc3cc(C#N)cnn13)c1c2C(=O)NC1` was tested on human Pan T cells; the reported pEC50 is 8.04

Short answer on human Pan T cells for CC1(C)c2cc(N3CCOC(C(C)(C)O)C3)ccc2Nc2c1cc(-c1cnn3ccccc13)c1c2C(=O)NC1 (stereo not shown) , pEC50: 8.37

Log: human Pan T cells, compound COC1CCCn2c(-c3cc4c(c5c3CNC5=O)Nc3ccc(N5C6CCC5COC6)cc3C4(C)C)cnc21 (single isomer, unassigned) , pEC50 = 7.46
